assay details: In vitro cytotoxicity, human colon carcinoma HT-29 cell culture
Type: cell-based
protocol conditions: read-out: Cytotoxicity μg/mL (IC50)
endpoint: IC50

Using the record for C/C=C1\NC(=O)[C@H](Cc2ccccc2)NC(=O)[C@@H](C(C)C)NC(=O)[C@@H]([C@@H](C)CC)NC(=O)[C@H](NC(=O)[C@H](NC(=O)[C@H](CCCN)NC(=O)[C@H]2CCCN2C(=O)[C@H](NC(=O)[C@@H](NC(=O)[C@@H](NC(=O)[C@H](NC(=O)CCCC(C)C)C(C)C)[C@@H](C)O)C(C)C)C(C)C)[C@@H](C)CC)[C@@H](C)OC(=O)[C@H](C(C)C)NC1=O [Kahalalide F] , state its measured IC50.
0.25 to 0.5 µg/mL

---

assay details: In vitro cytotoxicity, human lung carcinoma A-549 cell culture
Type: cell-based
protocol conditions: read-out: Cytotoxicity μg/mL (IC50)
endpoint: IC50 (µg/mL)
Only the number, expressed in µg/mL, is required.

Using the record for C/C=C1\NC(=O)[C@H](Cc2ccccc2)NC(=O)[C@@H](C(C)C)NC(=O)[C@@H]([C@@H](C)CC)NC(=O)[C@H](NC(=O)[C@H](NC(=O)[C@H](CCCN)NC(=O)[C@H]2CCCN2C(=O)[C@H](NC(=O)[C@@H](NC(=O)[C@@H](NC(=O)[C@H](NC(=O)CCCC(C)C)C(C)C)[C@@H](C)O)C(C)C)C(C)C)[C@@H](C)CC)[C@@H](C)OC(=O)[C@H](C(C)C)NC1=O [Kahalalide F] , state its measured IC50.
2.5
